Biological target: NDM-1 (Klebsiella pneumoniae)
Sequence (C7C422 whole entry, looked up, species assumed): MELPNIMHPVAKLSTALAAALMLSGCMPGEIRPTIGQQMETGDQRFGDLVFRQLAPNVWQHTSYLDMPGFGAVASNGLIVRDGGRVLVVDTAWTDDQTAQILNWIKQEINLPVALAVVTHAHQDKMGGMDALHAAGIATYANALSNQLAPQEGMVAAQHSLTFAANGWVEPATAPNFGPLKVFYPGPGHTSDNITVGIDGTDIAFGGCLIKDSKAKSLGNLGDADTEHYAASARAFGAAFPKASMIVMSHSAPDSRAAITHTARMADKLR
Test: biochemical
Format: biochemical
Conditions: fluorescence assay, CCF2-FA substrate, 1 pM enzyme, 2 hours at 25° C.; read-out: NDM-1 IC50
pIC50: −log10 of the molar value.
Each entry below lists one item and its recorded pIC50 value.

{"columns": ["molecule", "pIC50"],
 "data": [
  ["N[C@@H](CO)CNS(=O)(=O)c1ccc(-c2cccc(C3N=CN=N3)c2)c(-c2nn[nH]n2)c1S(N)(=O)=O (stereo partly shown)", 9.13],
  ["NCCNS(=O)(=O)c1ccc(-c2cccc3[nH]c([C@@H](N)CN)nc23)c(-c2nn[nH]n2)c1S(N)(=O)=O", 9.49],
  ["NCCNS(=O)(=O)c1ccc(C2CCC[C@H](N)C2)c(-c2nn[nH]n2)c1S(N)(=O)=O (stereo partly shown)", 7.49],
  ["Nc1nc2c(-c3ccc(S(N)(=O)=O)c(S(N)(=O)=O)c3-c3nn[nH]n3)cccc2o1", 9.87],
  ["NCc1nc2cc(-c3ccc(S(=O)(=O)N[C@@H]4CCNC4)c(S(N)(=O)=O)c3-c3nn[nH]n3)ccc2s1", 10.20],
  ["NC[C@@H]1CCN(S(=O)(=O)c2ccc(-c3cccc4sc(N)nc34)c(-c3nnn[nH]3)c2S(N)(=O)=O)C1", 8.71],
  ["Nc1nc2c(-c3ccc(S(=O)(=O)N[C@@H]4CNC[C@H]4O)c(S(N)(=O)=O)c3-c3nnn[nH]3)cccc2[nH]1", 9.90]
]}

Reference source: patent US10221163B2
